Test system: Trachea
MEASUREMENT_NOTES: Inhibition of Ach-induced contraction in Sprague-Dawley rat trachea assessed as tracheal tension at 10^-8 mol/L (reference value: 0.63 to 0.98 g)
Type: functional
In this section we review reported Activity values for a set of compounds.
READOUT: Activity (g)

>>> data_value("Cc1c([C@H](C)[C@@H]2NC[C@@H](C)C[C@H]2O)ccc2c1C[C@H]1[C@H]2CC(=O)[C@H]2C[C@@H](O)CC[C@@]21C")
0.53
>>> data_value("C[C@H]1CC[C@H]2[C@@H](C)[C@H]3CC[C@@H]4[C@@H](C[C@H]5[C@H]4CC(=O)[C@H]4C[C@@H](O)CC[C@@]45C)[C@@H]3CN2C1")
0.56
>>> data_value("C[C@H]1CC[C@@H]2N(C1)C[C@H]1[C@@H]3C[C@H]4[C@@H](CC(=O)[C@H]5C[C@@H](O[C@@H]6O[C@H](CO)[C@@H](O)[C@H](O)[C@H]6O)CC[C@@]54C)[C@@H]3CC[C@H]1[C@]2(C)O")
0.78

---

System: Trachea
MEASUREMENT_NOTES: Inhibition of Ach-induced contraction in Sprague-Dawley rat trachea assessed as maximal diastolic rate at 10^-8 mol/L (reference value: 14 +/- 1.8%)
Assay type: functional
Parameters: scale not given: the % may be the effect or the level left
READOUT: Activity

>>> data_value("C[C@H]1CC[C@H]2[C@@](C)(O)[C@@H]3CC[C@@H]4[C@@H](C[C@H]5[C@H]4CC(=O)[C@H]4C[C@@H](O)CC[C@@]45C)[C@@H]3C[N+]2([O-])C1 (stereo partly drawn)")
"17.2%"
>>> data_value("C[C@H]1CC[C@@H]2N(C1)C[C@H]1[C@@H]3C[C@H]4[C@@H](CC(=O)[C@H]5C[C@@H](O)CC[C@@]54C)[C@@H]3CC[C@H]1[C@]2(C)O")
"28.1%"
>>> data_value("C[C@H]1CC[C@H]2N(C1)C[C@H]1[C@@H]3C[C@H]4[C@@H](CC(=O)[C@H]5C[C@@H](O[C@@H]6O[C@H](CO)[C@@H](O)[C@H](O)[C@H]6O)CC[C@@]54C)[C@@H]3CC[C@@H]1[C@@]2(C)O")
"13.8%"
>>> data_value("C[C@H]1CC[C@H]2[C@@H](C)[C@H]3CC[C@@H]4[C@@H](C[C@H]5[C@H]4CC(=O)[C@H]4C[C@@H](O)CC[C@@]45C)[C@@H]3CN2C1")
"16.3%"
>>> data_value("C[C@@H]1CN[C@H]2[C@@H](C)[C@@]3(CC[C@]4(O)[C@@H]5CC(=O)[C@H]6C[C@@H](O)CC[C@]6(C)[C@H]5C[C@]45O[C@]53C)O[C@@H]2C1")
"18.3%"
>>> data_value("C[C@@H]1CC[C@H]2N(C1)C[C@H]1[C@@H]3C[C@H]4[C@@H](CC(=O)[C@H]5C[C@@H](O)CC[C@@]54C)[C@@H]3CC[C@@H]1[C@]2(C)O")
"20.6%"
>>> data_value("C[C@H]1CC[C@@H]2N(C1)C[C@H]1[C@@H]3C[C@H]4[C@@H](CC(=O)[C@H]5C[C@@H](O[C@@H]6O[C@H](CO)[C@@H](O)[C@H](O)[C@H]6O)CC[C@@]54C)[C@@H]3CC[C@H]1[C@]2(C)O")
"15.2%"
>>> data_value("Cc1c([C@H](C)[C@@H]2NC[C@@H](C)C[C@H]2O)ccc2c1C[C@H]1[C@H]2CC(=O)[C@H]2C[C@@H](O)CC[C@@]21C")
"16%"

---

In this section we review reported Activity values for a set of compounds.
System: Trachea
MEASUREMENT_NOTES: Inhibition of KCl-induced contraction in Sprague-Dawley rat trachea assessed as maximal diastolic rate at 10^-4 mol/L (reference value: 6.6 +/- 0.3%)
Type: functional
Parameters: scale not given: the % may be the effect or the level left
READOUT: Activity

>>> data_value("C[C@@H]1CN[C@H]2[C@@H](C)[C@@]3(CC[C@]4(O)[C@@H]5CC(=O)[C@H]6C[C@@H](O)CC[C@]6(C)[C@H]5C[C@]45O[C@]53C)O[C@@H]2C1")
"2.1%"
>>> data_value("C[C@H]1CC[C@@H]2N(C1)C[C@H]1[C@@H]3C[C@H]4[C@@H](CC(=O)[C@H]5C[C@@H](O[C@@H]6O[C@H](CO)[C@@H](O)[C@H](O)[C@H]6O)CC[C@@]54C)[C@@H]3CC[C@H]1[C@]2(C)O")
"3%"
>>> data_value("C[C@H]1CC[C@H]2[C@@H](C)[C@H]3CC[C@@H]4[C@@H](C[C@H]5[C@H]4CC(=O)[C@H]4C[C@@H](O)CC[C@@]45C)[C@@H]3CN2C1")
"2.9%"
>>> data_value("C[C@H]1CC[C@@H]2N(C1)C[C@H]1[C@@H]3C[C@H]4[C@@H](CC(=O)[C@H]5C[C@@H](O)CC[C@@]54C)[C@@H]3CC[C@H]1[C@]2(C)O")
"7.2%"
>>> data_value("C[C@@H]1CC[C@H]2N(C1)C[C@H]1[C@@H]3C[C@H]4[C@@H](CC(=O)[C@H]5C[C@@H](O)CC[C@@]54C)[C@@H]3CC[C@@H]1[C@]2(C)O")
"3.6%"
>>> data_value("C[C@H]1CC[C@H]2N(C1)C[C@H]1[C@@H]3C[C@H]4[C@@H](CC(=O)[C@H]5C[C@@H](O[C@@H]6O[C@H](CO)[C@@H](O)[C@H](O)[C@H]6O)CC[C@@]54C)[C@@H]3CC[C@@H]1[C@@]2(C)O")
"8.3%"
>>> data_value("C[C@H]1CC[C@H]2[C@@](C)(O)[C@@H]3CC[C@@H]4[C@@H](C[C@H]5[C@H]4CC(=O)[C@H]4C[C@@H](O)CC[C@@]45C)[C@@H]3C[N+]2([O-])C1 (stereo partly drawn)")
"5.7%"
>>> data_value("Cc1c([C@H](C)[C@@H]2NC[C@@H](C)C[C@H]2O)ccc2c1C[C@H]1[C@H]2CC(=O)[C@H]2C[C@@H](O)CC[C@@]21C")
"13.9%"

---

Tested on: Trachea
MEASUREMENT_NOTES: Inhibition of Ach-induced contraction in Sprague-Dawley rat trachea assessed as tracheal tension at 10^-7 mol/L (reference value: 0.63 to 0.98 g)
Assay type: functional
READOUT: Activity (g)

>>> data_value("Cc1c([C@H](C)[C@@H]2NC[C@@H](C)C[C@H]2O)ccc2c1C[C@H]1[C@H]2CC(=O)[C@H]2C[C@@H](O)CC[C@@]21C")
0.52
>>> data_value("C[C@H]1CC[C@H]2[C@@](C)(O)[C@@H]3CC[C@@H]4[C@@H](C[C@H]5[C@H]4CC(=O)[C@H]4C[C@@H](O)CC[C@@]45C)[C@@H]3C[N+]2([O-])C1 (stereo partly drawn)")
0.56
>>> data_value("C[C@H]1CC[C@H]2N(C1)C[C@H]1[C@@H]3C[C@H]4[C@@H](CC(=O)[C@H]5C[C@@H](O[C@@H]6O[C@H](CO)[C@@H](O)[C@H](O)[C@H]6O)CC[C@@]54C)[C@@H]3CC[C@@H]1[C@@]2(C)O")
0.83

---

In this section we review reported Activity values for a set of compounds.
Test system: Trachea
MEASUREMENT_NOTES: Inhibition of KCl-induced contraction in Sprague-Dawley rat trachea assessed as maximal diastolic rate at 10^-8 mol/L (reference value: 7 +/- 0.3%)
Format: functional
Parameters: scale not given: the % may be the effect or the level left
READOUT: Activity (%)

>>> data_value("C[C@H]1CC[C@H]2[C@@](C)(O)[C@@H]3CC[C@@H]4[C@@H](C[C@H]5[C@H]4CC(=O)[C@H]4C[C@@H](O)CC[C@@]45C)[C@@H]3C[N+]2([O-])C1 (stereo partly specified)")
6.9
>>> data_value("C[C@H]1CC[C@@H]2N(C1)C[C@H]1[C@@H]3C[C@H]4[C@@H](CC(=O)[C@H]5C[C@@H](O[C@@H]6O[C@H](CO)[C@@H](O)[C@H](O)[C@H]6O)CC[C@@]54C)[C@@H]3CC[C@H]1[C@]2(C)O")
5.2
>>> data_value("Cc1c([C@H](C)[C@@H]2NC[C@@H](C)C[C@H]2O)ccc2c1C[C@H]1[C@H]2CC(=O)[C@H]2C[C@@H](O)CC[C@@]21C")
4.8
>>> data_value("C[C@@H]1CN[C@H]2[C@@H](C)[C@@]3(CC[C@]4(O)[C@@H]5CC(=O)[C@H]6C[C@@H](O)CC[C@]6(C)[C@H]5C[C@]45O[C@]53C)O[C@@H]2C1")
5.1
>>> data_value("C[C@H]1CC[C@@H]2N(C1)C[C@H]1[C@@H]3C[C@H]4[C@@H](CC(=O)[C@H]5C[C@@H](O)CC[C@@]54C)[C@@H]3CC[C@H]1[C@]2(C)O")
6.3
>>> data_value("C[C@H]1CC[C@H]2[C@@H](C)[C@H]3CC[C@@H]4[C@@H](C[C@H]5[C@H]4CC(=O)[C@H]4C[C@@H](O)CC[C@@]45C)[C@@H]3CN2C1")
5.3
